B1: STEAP1 (parent)
chain: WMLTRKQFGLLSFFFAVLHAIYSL

Variants of: B1
test.method.notes: protein stability index of a GFP-peptide fusion (GPS, HEK-293T) (PSI 1-6); higher = more stable;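 note: lentivirally expressed fusions sorted by FACS into six bins by GFP to DsRed ratio, PSI derived from sequencing read proportions per bin multiplied by bin number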
applied.conditions: c terminus: a fixed tail appended
Label rule, in plain words: protein stability index of 2 and up is Met, under 2 is Not met.

[[record]]
mutation_string = "F13L"
group = "Met"

[[record]]
mutation_string = "G9T"
group = "Not met"

[[record]]
mutation_string = "F8A"
group = "Not met"

[[record]]
mutation_string = "L3E"
group = "Not met"

[[record]]
mutation_string = "F8V"
group = "Met"

[[record]]
mutation_string = "F8K"
group = "Not met"

[[record]]
mutation_string = "G9F"
group = "Not met"

[[record]]
mutation_string = "S12T"
group = "Not met"

[[record]]
mutation_string = "L10Y"
group = "Not met"

[[record]]
mutation_string = "W1S"
group = "Not met"

[[record]]
mutation_string = "S12K"
group = "Not met"

[[record]]
mutation_string = "L24E"
group = "Not met"

[[record]]
mutation_string = "Q7Y"
group = "Met"

[[record]]
mutation_string = "I21S"
group = "Met"

[[record]]
mutation_string = "K6H"
group = "Met"

[[record]]
mutation_string = "Q7N"
group = "Met"

[[record]]
mutation_string = "F14M"
group = "Not met"

[[record]]
mutation_string = "A20I"
group = "Not met"

[[record]]
mutation_string = "L24R"
group = "Not met"

[[record]]
mutation_string = "M2T"
group = "Not met"

